molecular target: Carbonic anhydrase 2 (Homo sapiens); assay: CAII small-molecule binders, profiling panel, biochemical, small-molecule microarray, Alexa647-labelled CAII (AID 1122); conditions: CAII-A647 binding fluorescence, higher = more signal
// reported composite z-score per item
assay-metric: composite z-score

compound	experimental-target	data-value
O=C1C2C=CC(C(O)C3CCCCC3)N(Nc3ccccc3F)C2C(=O)N1c1ccccc1 (configuration not stated)	Carbonic anhydrase 2 (Homo sapiens)	0.244
O=C1C2C=CC(C(O)C(c3ccccc3)c3ccccc3)N(Nc3ccccc3F)C2C(=O)N1c1ccccc1 (configuration not stated)	Carbonic anhydrase 2 (Homo sapiens)	0.612
O=C1NC(=O)C2C1C=CC(C(O)c1ccc(F)cc1)N2Nc1ccc(Cl)cc1Cl (configuration not stated)	Carbonic anhydrase 2 (Homo sapiens)	0.732
O=C1NC(=O)C2C1C=CC(C(O)C(c1ccccc1)c1ccccc1)N2Nc1ccccn1 (configuration not stated)	Carbonic anhydrase 2 (Homo sapiens)	0.809
O=C1N(Cc2ccccc2)c2ccccc2C[C@@]12N=C(c1ccc(OCCCO)cc1)O[C@H]2c1ccccc1	Carbonic anhydrase 2 (Homo sapiens)	0.183
CC(C)C(=C=CC[C@H](O)c1cccc(OCCO)c1)C[C@H](O)c1ccccn1	Carbonic anhydrase 2 (Homo sapiens)	0.811
CCCCCN1CC=CC23O[C@@H]4/C=C\CCCOC(=O)C4[C@H]2C(=O)N(CCO)[C@@H]3C1=O (some centres not stated)	Carbonic anhydrase 2 (Homo sapiens)	0.823
COCCCNC(=O)[C@@]1(Cc2ccccc2I)c2ccccc2C(=O)N(Cc2ccccc2OC)[C@H]1c1ccc(CO)cc1	Carbonic anhydrase 2 (Homo sapiens)	0.542
O=C1c2ccccc2[C@@]2(Cc3ccccc3N(CC(F)(F)F)C2=O)[C@H](c2ccc(CO)cc2)N1Cc1ccccc1	Carbonic anhydrase 2 (Homo sapiens)	-0.13
C=C[C@H](OC)[C@@H](O)c1ccc(OC)c(O)c1	Carbonic anhydrase 2 (Homo sapiens)	0.145
COC(=O)Cn1c(C(=O)N(C)C)cc2c1C[C@H]1CN(C(=O)c3ccccc3)[C@@](Cc3ccccc3)(C(=O)OC)[C@@H]21	Carbonic anhydrase 2 (Homo sapiens)	0.792
O=C(O)C1=CC[C@H]2C(=O)N(c3ccccc3)C(=O)[C@@H]12	Carbonic anhydrase 2 (Homo sapiens)	0.425
CCCCN1CC=CC23O[C@@H]4C=CCCOC(=O)C4[C@H]2C(=O)N(CCO)[C@@H]3C1=O (some centres not stated)	Carbonic anhydrase 2 (Homo sapiens)	0.79
CCCC1(C(=O)OC)C=C2C(=C(C(C)C)C(=O)C2C)CN1 (configuration not stated)	Carbonic anhydrase 2 (Homo sapiens)	0.0703
C=CCN1C(=O)[C@@]2(O[C@@H](CCO)[C@H]([Si](C)(C)c3ccc(OC)cc3)[C@H]2C)c2cc(N3CCCCC3=O)ccc21	Carbonic anhydrase 2 (Homo sapiens)	0.429
COC(=O)[C@@]1(Cc2ccccc2)[C@H]2c3cc(C(=O)N(C)C)n(Cc4ccc(Cl)c(C(F)(F)F)c4)c3C[C@H]2CN1C(=O)c1ccccc1	Carbonic anhydrase 2 (Homo sapiens)	0.668
COc1ccc([Si](C)(C)[C@H]2[C@H](CC(=O)N3CCC[C@H]3CO)O[C@@]3(C(=O)N(C)c4c(Br)cc(C)cc43)[C@@H]2C)cc1	Carbonic anhydrase 2 (Homo sapiens)	0.81
